Test system: 786-0
Test: NCI tumour cell line growth inhibition, 48 h
The source made the active and inactive calls. Cut-off read from the data, not from the text of the source: active = GI50 up to about 1.1 µM and inactive = higher.
property: GI50

[
  {
    "molecule": "COc1cc(C2SC(=N)Nc3c2c(C)nn3C(=O)c2ccccc2O)ccc1O (stereo not given)",
    "system": "786-0",
    "property": "GI50",
    "observed.value": "> 2330 nM (inactive)"
  },
  {
    "molecule": "N/N=C1/C(=O)N(c2ccc(Cl)cc2)C(=O)C(=O)C1c1nc2ccccc2s1 (stereo not given)",
    "system": "786-0",
    "property": "GI50",
    "observed.value": "> 100000 nM (inactive)"
  },
  {
    "molecule": "COc1cccc(C(=O)C#Cc2cnc(OC)nc2OC)c1",
    "system": "786-0",
    "property": "GI50",
    "observed.value": "1830 nM (inactive)"
  },
  {
    "molecule": "COc1cc(/C=C2\\C(=O)N(c3ccc(Cl)cc3)C(c3ccccc3)S2(=O)=O)cc(OC)c1OC (stereo not given)",
    "system": "786-0",
    "property": "GI50",
    "observed.value": "39400 nM (inactive)"
  }
]

Okay, now this molecule:
Item CCc1nc(Cl)nc(Cl)c1Cl ; assay system 786-0; GI50 reported as 415 nM (active)

###

System: CAKI-1
Experiment: NCI tumour cell line growth inhibition, 48 h
The source made the active and inactive calls. Rule as the data show it: active = GI50 up to about 1.1 µM and inactive = higher.
property: GI50

[
  {
    "compound": "COc1cc(-c2nc3cc(F)ccc3s2)ccc1O",
    "property": "GI50",
    "observed.value": "28.2 µM (inactive)"
  }
]

Form field GI50, entry N#CC1C(=O)NC2=C(CCOc3c2ccc2ccccc32)C1c1ccc(F)cc1 (centres undefined) : 31.5 µM (inactive)

// field: GI50; key: COc1ccc2c(-c3ccc(O)cc3)c(Oc3ccc(Cl)cc3)c(=O)oc2c1 ; value = 2.81 µM (inactive)

Record [N-]=[N+]=NC(CI)c1cn([C@H]2C[C@H](O)[C@@H](CO)O2)c(=O)[nH]c1=O (some centres undefined) . Reported GI50: > 100 µM (inactive)

GI50 recorded for this compound, Cc1ccc2nc(NC(=O)/C(Cc3nc4ccc(Cl)cc4nc3O)=N\NC(C)(C)C)sc2c1 , is 41.8 µM (inactive)

Value of GI50 reported for the compound O=C1/C(=C/c2ccc(Cl)cc2)N=C(c2ccccc2)N1c1nc2ccc(Sc3ccccc3)cc2[nH]1 is 30.1 µM (inactive)

get_value(item= CNC(=O)CNC(=O)N(C[C@@H]1CCCN1C(=O)[C@H](CC(C)C)NC(=O)OC(C)(C)C)C(C)C , readout=GI50) returns > 100 µM (inactive)

Reported GI50 of S=c1c2nc[nH]c2ncn1CCSC1=NC=NC2=NC=NC21 (centres undefined) : > 100 µM (inactive)

Reported GI50 of COC(=O)C#CCC1CCCC1C1SCCS1 (centres undefined) : > 100 µM (inactive)

Measured GI50, CCCCCCCCCCCCCCCCP(=O)([O-])OCC[N+](C)(C)C : 12.1 µM (inactive)

Looking up COc1ccccc1NC(=O)C1=C(C)NC(C)=C(C(=O)Nc2ccccc2OC)C1c1ccccc1F , I found its GI50 recorded as > 100 µM (inactive)

Documented GI50 of Cc1c(NC(=O)Nc2c(Cl)cccc2Cl)c(=O)n(-c2ccccc2)n1C : > 100 µM (inactive)

// field: GI50; key: Cc1ccc(/C=C2\CCCC\C2=N\O)cc1 ; value = 56.6 µM (inactive)

GI50 reading for COc1ccc(-c2cc(O)c3cc4c(cc3n2)OCO4)c(OC)c1 : > 100 µM (inactive)
